Test system: Plasmodium falciparum
Assay: GSK_TCMDC: Inhibition of Plasmodium falciparum Dd2 in whole red blood cells, using parasite LDH activity as an index of growth. Test compounds present at 2uM
Format: functional
Grouping by measured Inhibition is done with the following cut points: LOW = under 50%, MID = from 50% up to 90%, HIGH = 90% and over

Field: example entries. Status: answers known.
- Cl.O=c1cc(NCCCNCc2cc3c(Cl)cc(Cl)cc3[nH]2)[nH]c2ccccc12: LOW
- FC(F)(F)c1ccc2[nH]c(-c3cccc(-c4cccc(CNCCc5ccncc5)c4)c3)nc2c1.O=C(O)C(F)(F)F: HIGH
- Cc1cccc2nc(-c3cccc(-c4ccc(CNCCNC(=O)c5ccnn5C)cc4)c3)[nH]c12.O=C(O)C(F)(F)F: HIGH
- CC(O)C1CCCCN1C(=O)c1ccc(-c2ccc(-c3nc4cc(F)ccc4[nH]3)cc2)cc1 (configuration not stated): HIGH
- Fc1cccc(Nc2nc(NCCc3ccc(Cl)cc3)nc(Nc3cccc(F)c3)n2)c1: LOW
- COc1cc2nc(N3CCC(CNC(=O)c4ccc(-c5ccc(C(F)(F)F)cc5)cc4)CC3)nc(N)c2cc1OC: HIGH

Exercise: Lab log: COCCNCc1cccc(-c2ccc(CNC3CCN(Cc4ccccc4)CC3)cc2)c1.O=C(O)C(F)(F)F — assign Inhibition category
Solution: HIGH

Exercise: Another compound to look at: Cl.c1ccc(Oc2ccc(Nc3ccnc(Nc4ccc(OCCN5CCCCC5)cc4)n3)cc2)cc1
Solution: MID

Exercise: Repeat with COc1ccc(C=NN=c2cc[nH]c3ccccc23)c2ccccc12
Solution: HIGH

Exercise: Then Cc1[nH]c(C)c(-c2ccc(Oc3ccc(Cl)cc3)cc2)c(=O)c1C ?
Solution: HIGH

Exercise: Next: CN1CCN(CCCN(Cc2csc(-c3ccc(CNCc4ccccc4)cc3)n2)S(=O)(=O)c2ccccc2)CC1.O=C(O)C(F)(F)F
Solution: MID

Exercise: Proceed to CN1CCN(CCCN(Cc2cccc(-c3ccc(CNCc4ccc5c(c4)OCO5)cc3)c2)C(=O)Nc2ccccc2)CC1.O=C(O)C(F)(F)F
Solution: MID

Exercise: Please give the result for Cc1ccc(NC(=O)NC2CCN(CCC(NC(=O)Cc3ccccc3)c3ccc(Cl)c(Cl)c3)CC2)cc1 (configuration not stated) too.
Solution: LOW

Exercise: Query COc1ccc2nccc([C@@H](O)CN3CCC(NC(=O)/C=C/c4ccc5cc(C)[nH]c5c4)CC3)c2c1 next
Solution: HIGH

Exercise: Also, CCn1ncc(Cl)c1CN(C)S(=O)(=O)c1ccc(Br)cc1 please.
Solution: MID

Exercise: Could you do the same for CCCCCCc1cc2cc(-c3csc(C=Cc4ccccc4)n3)c(=O)oc2cc1O , please?
Solution: MID

---

Tested on: Plasmodium falciparum
Experiment: GSK_TCMDC: Inhibition of Plasmodium falciparum 3D7 in whole red blood cells, using parasite LDH activity as an index of growth. Test compounds present at 2uM
Assay type: functional
REPORTED PROPERTY: Inhibition (%)
Only the number, expressed in %, is required.

Some solved entries appear below for comparison.
• Cl.Clc1ccc(OCCC2CCN(CCCCCCN3CCCCC3)CC2)cc1Cl = 97
• CC(=O)c1c(Cc2ccccc2Cl)c[nH]c1C = 95
• CC1CN(c2cccc3c2nc(-c2cncc(C#N)c2)n3CCNCc2ccccc2)CC(C)O1.O=C(O)C(F)(F)F (stereo not drawn) = 83
• O=C(NCCNc1ccnc(Nc2ccc(F)cc2)n1)Nc1ccc2c(c1)OCO2 = 97
• O=C(Nc1cccc(CN2CCCN(Cc3ncc[nH]3)CC2)c1)c1ccc2ccccc2c1.O=C(O)C(F)(F)F = 100

Exercise: Tell me reported Inhibition for COc1ccc(-c2nc(NC(=O)COc3ccc(C(C)=O)cc3)sc2C)cc1 , tested with Plasmodium falciparum.
Solution: 98

Exercise: Try this molecule too: COc1cc(NC(=O)c2ccc3c(=O)n(Cc4ccccc4)c(=S)[nH]c3c2)cc(OC)c1OC
Solution: 94

Exercise: Next molecule: CC(C)CC(=O)N1CCNC[C@@H]1C(=O)NCc1ccc(Cl)c(Cl)c1.O=C(O)C(F)(F)F
Solution: 99

Exercise: Could you do the same for CN(CCCN(C)c1cc(NC(=O)c2cccc(F)c2)ccn1)Cc1cccc(O)c1.O=C(O)C(F)(F)F , please?
Solution: 92
